molecular target: Mdm2 (Homo sapiens (Human), UniProt Q00987); assay: Fluorescence polarization (FP) competition binding assay with Mdm2
Sequence (Q00987 whole entry): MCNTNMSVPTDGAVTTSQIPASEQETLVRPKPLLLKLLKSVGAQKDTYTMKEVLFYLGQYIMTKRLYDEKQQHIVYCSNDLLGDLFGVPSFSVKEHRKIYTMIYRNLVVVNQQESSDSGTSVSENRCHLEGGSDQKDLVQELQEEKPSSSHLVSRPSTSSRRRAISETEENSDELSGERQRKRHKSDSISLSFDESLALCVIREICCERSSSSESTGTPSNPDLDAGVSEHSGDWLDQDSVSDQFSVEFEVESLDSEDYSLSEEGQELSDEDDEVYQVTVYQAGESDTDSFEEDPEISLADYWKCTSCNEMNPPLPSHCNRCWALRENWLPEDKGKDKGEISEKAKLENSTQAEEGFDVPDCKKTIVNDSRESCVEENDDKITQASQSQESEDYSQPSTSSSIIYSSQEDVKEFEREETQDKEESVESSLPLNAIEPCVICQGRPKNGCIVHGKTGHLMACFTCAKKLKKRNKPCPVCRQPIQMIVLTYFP
Readout Label: Ki (µM)

Compound: CC(C)(C)NC(=O)C(c1c(C(=O)O)[nH]c2cc(Cl)ccc12)N(C=O)Cc1cccc(F)c1 (stereo not drawn)
Readout Label: Ki
Unit Name: µM
Quantitative Result: 0.81

[A] CC(C)(C)NC(=O)C(c1c(C(=O)O)[nH]c2cc(Cl)ccc12)N(C=O)Cc1cc(F)ccc1F (stereo not drawn)
[B] CC(C)(C)NC(=O)C(c1c(C(=O)O)[nH]c2cc(Cl)ccc12)N(C=O)Cc1ccccc1F (stereo not drawn)
Task item: Just curious, which one has the larger Ki reading, A or B ? Please reply using the label of the selected record.
Reply: A

---

biological target: Mdm2 (Homo sapiens (Human)); assay: Fluorescence polarization (FP) competition binding assay with Mdm2; settings: Table 8, Formula II compounds, measured by FP
pKi: −log10 of the molar value.
Readout Label: pKi

Compound: CC(C)CC(NC(C(=O)NCc1ccccc1)c1c(C(=O)O)[nH]c2cc(Cl)ccc12)C(=O)NCCCN1CCOCC1 (stereo not shown) [KK279]
Study System: Mdm2 (Homo sapiens (Human))
Readout Label: pKi
Quantitative Result: 5.15
--
Compound: CCOC(=O)c1[nH]c2cc(Cl)ccc2c1C(N[C@@H](CC(C)C)C(=O)NCCN1CCOCC1)C(=O)NCc1ccccc1 (stereo partly shown) [KK242]
Study System: Mdm2 (Homo sapiens (Human))
Readout Label: pKi
Quantitative Result: 5.00
--
Compound: CCOC(=O)c1[nH]c2cc(Cl)ccc2c1C(NC(CC(C)C)C(=O)NCCO)C(=O)NCc1ccccc1 (stereo in doubt) [KK259]
Study System: Mdm2 (Homo sapiens (Human))
Readout Label: pKi
Quantitative Result: 5.05
--
Compound: CC(C)CC(NC(C(=O)NCc1ccccc1)c1c(C(=O)O)[nH]c2cc(Cl)ccc12)C(=O)NCCO (stereo not shown) [KK278]
Study System: Mdm2 (Homo sapiens (Human))
Readout Label: pKi
Quantitative Result: 5.05

[1] CCOC(=O)c1[nH]c2cc(Cl)ccc2c1C(NC(CC(C)C)C(=O)NCCCN1CCOCC1)C(=O)NCc1ccccc1 (stereo in doubt) [KK261]
[2] CCOC(=O)c1[nH]c2cc(Cl)ccc2c1C(NC(CC(C)C)C(=O)O)C(=O)NCc1ccccc1 (stereo not shown) [KK272]
Task item: Would you mind telling me which has the lower recorded pKi between 1 and 2 ? Please reply using the label of the selected record.
Reply: 1

---

molecular target: Mdm2 (Homo sapiens (Human)); assay: Fluorescence polarization (FP) competition binding assay with Mdm2; details: read-out: Ki (inhibition constant); Table 2, compounds 9 (free C-2 carboxylic acids), FP assay
Readout Label: pKi
Note on pKi: it is the negative log10 of concentration, concentration in mol/L.

Task item: Endpoint output: pKi of CC(C)(C)NC(=O)C(c1c(C(=O)O)[nH]c2cc(Cl)ccc12)N(C=O)Cc1ccc(-c2ccccc2)cc1 (stereo not shown) . Value?
Reply: 5.60
